Give solubility for every item shown.
- assay.info: Thermodynamic equilibrium solubility
- Format: physicochemical
- experimental.context: 25 °C, fassgf or other biorelevant, thermodynamic from solid; simulated intestinal fluid, 25±1° C.; read-out: Solubility, SIF

Sample records with solubility:
compound: COc1cc2c(c(OC)c1OC)-c1ccc(N3CCC(c4ccccc4)CC3)c(=O)cc1C(NC(C)=O)CC2 (stereo not drawn)
readout.type: solubility
measured.result: 20 µg/mL
--
compound: COc1cc2c(c(OC)c1OC)-c1ccc(Nc3ccc(Cl)c(C(F)(F)F)c3)c(=O)cc1[C@@H](NC(C)=O)CC2
readout.type: solubility
measured.result: > 1500 µg/mL

API: the following record is the query input.
Just so you know, measured solubility for COc1cc2c(c(OC)c1OC)-c1ccc(OC)c(=O)cc1[C@@H](NC(C)=O)CC2 came out at 800 µg/mL

----------
- assay.info: Oral and IV pharmacokinetic studies
- Format: in vivo
- experimental.context: male, mouse, plasma; PO 10 mg/Kg, BALB/c mice
readout.type: Tmax (h)
One number for each entry, in h.

Just so you know, measured Tmax for COc1cc2c(c(OC)c1OC)-c1ccc(Nc3ccc(Cl)c(C(F)(F)F)c3)c(=O)cc1[C@@H](NC(C)=O)CC2 came out at 2

----------
- assay.info: Oral and IV pharmacokinetic studies
- Assay type: in vivo
- experimental.context: male, mouse, plasma; IV 1 mg/Kg, BALB/c mice
readout.type: AUC(0-inf)
# include the unit after the value

Just so you know, measured AUC(0-inf) for COc1cc2c(c(OC)c1OC)-c1ccc(Nc3ccc(Cl)c(C(F)(F)F)c3)c(=O)cc1[C@@H](NC(C)=O)CC2 came out at 2690 ng·h/mL

----------
- assay.info: Oral and IV pharmacokinetic studies
- Format: in vivo
- experimental.context: male, mouse, plasma; IV 1 mg/Kg, BALB/c mice; read-out: t1/2, β (converted)
readout.type: half-life (min)
Answers are plain numbers, in min.

Just so you know, measured half-life for COc1cc2c(c(OC)c1OC)-c1ccc(Nc3ccc(Cl)c(C(F)(F)F)c3)c(=O)cc1[C@@H](NC(C)=O)CC2 came out at 167

Values from patent US9868695B2
